SYSTEM NAME: LDHA (Homo sapiens)
PROTOCOL DESCRIPTION: Coupled diaphorase assay, LDHA
Format: biochemical
CONDITIONS: 4-7 nM LDHA, 500 μM lactate, 150 μM NAD+, lactate to pyruvate direction
pIC50: −log10 of the molar value.
QUANTITY: pIC50

Please report the measured pIC50 for COC(=O)OC1=C(Sc2ccccc2Cl)C(=O)NC(c2ccc(N3CCOCC3)cc2)(c2ccsc2)C1 (stereo not shown)
4.00 to 6.00

Determine its reported pIC50: COC(=O)OC1=C(Sc2ccccc2Cl)C(=O)NC(c2ccsc2)(c2ccc(Br)cn2)C1 (stereo not shown)
< 3.70

Give me measured pIC50, please, for this molecule: O=C1CC(c2ccsc2)(c2cccc(OCC3CCCC3)n2)NC(=O)C1Sc1ccccc1Cl (stereo not shown) [Example 9, reference compound]
4.00 to 6.00

State its pIC50 for this molecule: CCCCCCCCCC(=O)OC1=C(Sc2ccccc2Cl)C(=O)NC(c2ccsc2)(c2cccc(OC3COC3)n2)C1 (stereo not shown)
4.00 to 6.00

---

What IC50 was measured for each of the following?
SYSTEM NAME: LDHB (Homo sapiens)
Sequence (P07195 whole entry): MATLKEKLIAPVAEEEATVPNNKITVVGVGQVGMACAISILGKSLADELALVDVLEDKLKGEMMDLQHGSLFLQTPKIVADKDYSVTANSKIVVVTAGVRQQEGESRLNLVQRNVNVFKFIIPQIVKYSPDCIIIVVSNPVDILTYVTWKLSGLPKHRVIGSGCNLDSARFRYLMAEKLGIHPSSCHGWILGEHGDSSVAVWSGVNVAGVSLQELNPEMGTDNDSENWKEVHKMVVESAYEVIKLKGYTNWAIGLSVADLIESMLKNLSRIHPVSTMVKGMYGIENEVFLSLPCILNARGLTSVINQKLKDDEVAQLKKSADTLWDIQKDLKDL
PROTOCOL DESCRIPTION: Coupled diaphorase assay, LDHB
Type: biochemical
CONDITIONS: 6 nM LDHB, 500 μM lactate, 150 μM NAD+, lactate to pyruvate direction

Complete the entry with IC50 for COCCOC(=O)OC1=C(Sc2ccccc2Cl)C(=O)NC(c2ccsc2)(c2cccc(OCC3CCCC3)n2)C1 (centres unmarked)
> 200 µM

Return reported IC50. Input compound: COC(=O)OC1=C(Sc2ccccc2Cl)C(=O)NC(c2ccsc2)(c2ccc(Br)cn2)C1 (centres unmarked)
> 200 µM

Provide only the value of recorded IC50 for O=C1CC(c2ccsc2)(c2cccc(OCC3CCCC3)n2)NC(=O)C1Sc1ccccc1Cl (centres unmarked) [Example 9, reference compound]
1 to 100 µM

Answer with reported IC50 of CCOC(=O)OC1=C(Sc2ccccc2Cl)C(=O)NC(c2ccsc2)(c2cccc(Br)n2)C1 (centres unmarked)
> 200 µM

Please report IC50 for the following compound: CCOC(=O)OC1=C(Sc2ccccc2Cl)C(=O)NC(c2ccc(Br)cc2)(c2ccsc2)C1 (centres unmarked)
> 200 µM
